system: OVCAR-3; assay: NCI tumour cell line growth inhibition, 48 h
Calls of active or inactive are those of the source. No stated cut-off is given here; in the data, active = GI50 up to about 1.1 µM and inactive = higher.
assayEndpoint: GI50

# molecule, observedValue
rows = [
    ("Cc1cc(C(=O)NCCN(C)C)c2nc3ccccc3cc2c1", "2.38 µM (inactive)"),
]

// query Fill blank: measured GI50 of the molecule O=C1C=C(Nc2cccnc2)c2ccccc2/C1=N/O is ____.
// result 1.81 µM (inactive)

// query Same question, CC1(C)CCC[C@@]2(C)C1CC[C@@]1(CO)O[C@H](C3=CC(=O)OC3O)C[C@H]12 (stereo not given in full) this time
// result 14.9 µM (inactive)

// query Same question, O=C(CCCl)NN=C1NCCN1 this time
// result > 100 µM (inactive)

// query Same question, CC(N)C(=O)OCN1C(=O)C2C3C=CC(C2C1=O)C1C2C(=O)N(COC(=O)C(C)N)C(=O)C2C31 (stereo not given) this time
// result 33.6 µM (inactive)

Where do the numbers come from? From ChEMBL document CHEMBL1201862.
